Experiment: Intracorporeal kinetics and oral absorbing property test (dog, oral cassette)
Assay type: in vivo
Conditions: orally administered, 0.5 mg/kg cassette
Please note: Cltot (apparent plasma clearance) exactly at 0.6 mL/min/kg is False. Only values below 0.6 mL/min/kg get True.

Regarding `COC[C@@H]1CC[C@@H](c2ncc(CCC(=O)O)s2)N1C(=O)Cc1ccc2nc(Nc3cc(F)ccc3C)oc2c1F` , kindly confirm whether its Cltot (apparent plasma clearance) is beneath 0.6 mL/min/kg.
True

Note, next up: `CO[C@H]1C[C@@H](c2ncc(CCC(=O)O)s2)N(C(=O)Cc2cc(Cl)c(NC(=O)c3cn(C)c4ccccc34)cc2Cl)C1`
False

Note, next up: `CO[C@H]1C[C@@H](c2ncc(CCC(=O)O)s2)N(C(=O)Cc2cc(Cl)c(NC(=O)c3cn(C)c4ccccc34)cc2F)C1`
False

Note, next up: `CCOC[C@@H]1CC[C@@H](c2ncc(CCC(=O)O)s2)N1C(=O)Cc1ccc2nc(Nc3cc(F)ccc3C)oc2c1F`
True

Note, next up: `CC(C)O[C@H]1C[C@@H](c2ncc(CCC(=O)O)s2)N(C(=O)Cc2cc(Cl)c(NC(=O)c3csc4ccccc34)cc2F)C1`
True

* * *

Assay: Dispersibility test in Japanese Pharmacopoeia First and Second Solution
Format: physicochemical
Conditions: JP2, pH 6.8
MEASURED PARAMETER: Dispersibility in Japanese Pharmacopoeia Second Solution

Use these answered entries as a reference point.
CO[C@H]1C[C@@H](c2ncc(CCC(=O)O)s2)N(C(=O)Cc2cc(Cl)c(Nc3nc4ccccc4s3)cc2F)C1 [Example 111]; 750 µg/mL
COC1CN([C@H]2C[C@@H](c3ncc(CCC(=O)O)s3)N(C(=O)Cc3cc(Cl)c(NC(=O)c4coc5ccccc45)cc3Cl)C2)C1 [Example 68]; 1000 µg/mL
CO[C@H]1C[C@@H](c2ncc(CCC(=O)O)s2)N(C(=O)Cc2ccc(Nc3nc4ccccc4o3)c(Cl)c2)C1 [Example 107]; 700 µg/mL

Dear colleague, I am looking for the recorded Dispersibility in Japanese Pharmacopoeia Second Solution of the following compound: CO[C@H]1C[C@@H](c2ncc(CCC(=O)O)s2)N(C(=O)Cc2cc(Cl)c(NC(=O)c3cn(C)c4ccccc34)cc2F)C1 [Example 2]
>2000 µg/mL

Note, next up: CO[C@H]1C[C@@H](c2ncc(CCC(=O)O)s2)N(C(=O)Cc2ccc(Nc3nc4ccccc4s3)c(Cl)c2)C1 [Example 110]
730 µg/mL

Note, next up: O=C(O)CCc1cnc([C@@H]2[C@@H](O)CCN2C(=O)Cc2ccc(Nc3nc4ccccc4s3)c(Cl)c2)s1 [Example 119]
730 µg/mL

Note, next up: O=C(O)CCc1cnc([C@@H]2C[C@H](N3CCC(F)(F)CC3)CN2C(=O)Cc2cc(Cl)c(NC(=O)c3coc4ccccc34)cc2Cl)s1 [Example 78]
230 µg/mL

* * *

Reported Ki values follow for various compounds
Biological target: hα4 and β1 integrins (VLA-4) (Homo sapiens, UniProt P05556+P13612)
Sequence (P13612 34-1032): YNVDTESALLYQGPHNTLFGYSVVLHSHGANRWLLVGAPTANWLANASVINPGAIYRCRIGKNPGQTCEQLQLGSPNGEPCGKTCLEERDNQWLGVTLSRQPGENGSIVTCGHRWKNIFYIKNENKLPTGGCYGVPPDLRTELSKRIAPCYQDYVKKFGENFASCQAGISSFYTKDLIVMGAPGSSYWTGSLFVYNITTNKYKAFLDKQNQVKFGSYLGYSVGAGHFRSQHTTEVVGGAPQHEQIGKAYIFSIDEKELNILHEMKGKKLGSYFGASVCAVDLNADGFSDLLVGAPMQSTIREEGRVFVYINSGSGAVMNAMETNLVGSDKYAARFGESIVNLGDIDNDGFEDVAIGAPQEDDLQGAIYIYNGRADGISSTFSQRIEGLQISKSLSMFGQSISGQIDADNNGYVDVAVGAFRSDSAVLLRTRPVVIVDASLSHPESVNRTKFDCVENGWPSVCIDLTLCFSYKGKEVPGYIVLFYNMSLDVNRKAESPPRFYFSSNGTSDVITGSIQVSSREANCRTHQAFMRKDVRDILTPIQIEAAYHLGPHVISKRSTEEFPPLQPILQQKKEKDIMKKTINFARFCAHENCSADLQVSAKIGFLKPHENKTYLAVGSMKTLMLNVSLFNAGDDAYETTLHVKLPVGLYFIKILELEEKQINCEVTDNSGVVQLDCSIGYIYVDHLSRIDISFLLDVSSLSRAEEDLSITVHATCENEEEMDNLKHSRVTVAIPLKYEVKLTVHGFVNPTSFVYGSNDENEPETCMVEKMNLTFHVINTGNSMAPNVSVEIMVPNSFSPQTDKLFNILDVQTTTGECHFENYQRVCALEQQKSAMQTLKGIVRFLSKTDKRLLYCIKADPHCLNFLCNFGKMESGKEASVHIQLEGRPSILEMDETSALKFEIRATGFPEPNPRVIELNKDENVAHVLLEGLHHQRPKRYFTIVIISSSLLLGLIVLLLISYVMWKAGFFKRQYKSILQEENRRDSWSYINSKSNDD
Sequence (P05556 21-798): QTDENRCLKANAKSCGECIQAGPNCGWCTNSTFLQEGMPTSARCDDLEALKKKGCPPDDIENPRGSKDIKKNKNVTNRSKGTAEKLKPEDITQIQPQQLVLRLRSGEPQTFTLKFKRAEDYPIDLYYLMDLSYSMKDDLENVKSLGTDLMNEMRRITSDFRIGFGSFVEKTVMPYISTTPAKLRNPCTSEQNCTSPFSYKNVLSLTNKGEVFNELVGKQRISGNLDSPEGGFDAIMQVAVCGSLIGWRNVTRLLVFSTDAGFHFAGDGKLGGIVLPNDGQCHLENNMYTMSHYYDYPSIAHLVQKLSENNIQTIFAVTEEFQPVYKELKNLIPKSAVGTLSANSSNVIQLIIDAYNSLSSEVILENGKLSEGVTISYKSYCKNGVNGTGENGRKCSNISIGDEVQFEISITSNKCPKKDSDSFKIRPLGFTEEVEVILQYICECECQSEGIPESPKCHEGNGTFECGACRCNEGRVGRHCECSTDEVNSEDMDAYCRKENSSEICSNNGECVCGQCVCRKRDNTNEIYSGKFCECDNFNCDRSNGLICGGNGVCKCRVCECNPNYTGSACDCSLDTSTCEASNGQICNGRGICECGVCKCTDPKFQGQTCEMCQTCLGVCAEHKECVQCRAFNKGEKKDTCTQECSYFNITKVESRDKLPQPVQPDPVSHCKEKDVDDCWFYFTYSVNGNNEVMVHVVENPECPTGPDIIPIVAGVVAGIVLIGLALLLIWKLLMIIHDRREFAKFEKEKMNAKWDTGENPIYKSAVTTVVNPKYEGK
Assay: In vitro evaluation: inhibition of binding of CHO cells expressing hα4 and β1 integrins to Eu3+-hVCAM-1 D1D7-IgG
Conditions: ligand Eu3+-hVCAM-1 D1D7-IgG 2 nM, Ki calculated from IC50
Numbers only; they are read as nM.

CO[C@H]1C[C@@H](c2ncc(CCC(=O)O)s2)N(C(=O)Cc2ccc(Nc3nc4ccccc4s3)c(Cl)c2)C1 [Example 110]; 2.5

Dear colleague, I am looking for the recorded Ki of the following compound: COC1CN([C@H]2C[C@@H](c3ncc(CCC(=O)O)s3)N(C(=O)Cc3cc(Cl)c(NC(=O)c4cn(C)c5ccccc45)cc3F)C2)C1 [Example 63]
0.89

Note, next up: C[C@@H]1CN([C@H]2C[C@@H](c3ncc(CCC(=O)O)s3)N(C(=O)Cc3cc(Cl)c(NC(=O)c4coc5ccccc45)cc3F)C2)C[C@H](C)O1 [Example 89]
1.3

Note, next up: C[C@@H]1CN([C@H]2C[C@@H](c3ncc(CCC(=O)O)s3)N(C(=O)Cc3cc(Cl)c(NC(=O)c4coc5ccccc45)cc3Cl)C2)C[C@H](C)O1 [Example 90]
1.3

Note, next up: Cn1cc(C(=O)Nc2cc(Cl)c(CC(=O)N3C[C@@H](F)C[C@H]3c3ncc(CCC(=O)O)s3)cc2Cl)c2ccccc21 [Example 18]
1.1

Note, next up: CO[C@H]1C[C@@H](c2ncc(CCC(=O)O)s2)N(C(=O)Cc2cc(Cl)c(Nc3nc4ccccc4s3)cc2F)C1 [Example 111]
3.3

Note, next up: CCO[C@H]1CCN(C(=O)Cc2ccc3nc(Nc4cc(F)ccc4C)oc3c2F)[C@@H]1c1ncc(CCC(=O)O)o1 [Example 103]
2.6

Note, next up: Cn1cc(C(=O)Nc2cc(Cl)c(CC(=O)N3CCC[C@H]3c3ncc(CCC(=O)O)s3)cc2Cl)c2ccccc21 [Example 26]
2.5

Note, next up: O=C(O)CCc1cnc([C@@H]2C[C@H](F)CN2C(=O)Cc2cc(Cl)c(NC(=O)c3coc4ccccc34)cc2F)s1 [Example 22]
0.23

Note, next up: O=C(O)CCc1cnc([C@@H]2[C@@H](O)CCN2C(=O)Cc2ccc(Nc3nc4ccccc4o3)c(Cl)c2)s1 [Example 116]
40

Note, next up: CO[C@H]1C[C@@H](c2ncc(CCC(=O)O)s2)N(C(=O)Cc2cc(Cl)c(NC(=O)c3csc4ccccc34)cc2Cl)C1 [Example 3]
0.58

Note, next up: CO[C@H]1C[C@@H](c2ncc(CCC(=O)O)s2)N(C(=O)Cc2cc(Cl)c(NC(=O)c3coc4ccccc34)cc2Cl)C1 [Example 5]
0.6

Note, next up: COC1CN([C@H]2C[C@@H](c3ncc(CCC(=O)O)s3)N(C(=O)Cc3cc(Cl)c(NC(=O)c4csc5ccccc45)cc3F)C2)C1 [Example 65]
0.93
